Taken from ChEMBL document CHEMBL4184243.

# Tested on: Plasmodium berghei
# Procedure Summary: Antimalarial activity against chloroquine-susceptible Plasmodium berghei ANKA infected in Balb-C mouse assessed as mean survival days at 10 mg/kg, ip administered once daily for 4 days (reference value: 8.4 +/- 0.15 day)
# Format: functional
The entries below are paired with their reported MSD.
Output spec: scalar in days, unitless text.

Here is how some molecules turned out for MSD.
Molecule: COC(=O)/C(=C\c1ccc(OC(=O)c2cc(OC)cc(OC)c2)cc1)Sc1ccnc2cc(Cl)ccc12
System Under Test: Plasmodium berghei
Reported Property: MSD
Experimental Result: 28.5
--
Molecule: COC(=O)/C(=C\c1ccc(OC(=O)c2cccc(OC)c2)cc1)Sc1ccnc2cc(Cl)ccc12
System Under Test: Plasmodium berghei
Reported Property: MSD
Experimental Result: 27.16

Query: If you can, please state the reported MSD value of COC(=O)/C(=C\c1ccc(O)cc1)Sc1ccnc2cc(Cl)ccc12 .
Result: 24.8

Query: Further, for COC(=O)/C(=C\c1ccc(OC(=O)c2c(OC)cccc2OC)cc1)Sc1ccnc2cc(Cl)ccc12 ?
Result: 23

Query: Next up: COC(=O)/C(=C\c1ccc(OC(=O)c2ccccc2OC)cc1)Sc1ccnc2cc(Cl)ccc12
Result: 28.83

Query: Param item: COC(=O)/C(=C\c1ccc(OC(=O)c2ccc(OC)c(OC)c2OC)cc1)Sc1ccnc2cc(Cl)ccc12
Result: 29.83

Query: Try the molecule CCN(CC)CCCC(C)Nc1ccnc2cc(Cl)ccc12 (configuration not stated)
Result: 29.98

---

# Tested on: Jurkat E6.1
# Procedure Summary: Induction of apoptosis in human Jurkat E6-1 cells assessed as late apoptotic cells at 5 uM after 24 hrs by Annexin-V-FITC/propidium iodide staining based flow cytometric analysis (reference value: 0.73 +/- 0.14 %)
# Format: functional
Simple rule here: Activity less than 3% is y, otherwise n.

Illustrative cases are given below, each with its answer.
Compound: COC(=O)/C(=C\c1ccc(O)cc1)Sc1ccnc2cc(Cl)ccc12
System Under Test: Jurkat E6.1
Class Assignment: y
//
Compound: COC(=O)/C(=C\c1ccc(OC(=O)c2ccc(OC)c(OC)c2)cc1)Sc1ccnc2cc(Cl)ccc12
System Under Test: Jurkat E6.1
Class Assignment: n
//
Compound: COC(=O)/C(=C\c1ccc(OC(=O)c2cc(OC)c(OC)c(OC)c2)cc1)Sc1ccnc2cc(Cl)ccc12
System Under Test: Jurkat E6.1
Class Assignment: n
//
Compound: COC(=O)/C(=C\c1ccc(OC(=O)c2cc(OC)c(OC)cc2OC)cc1)Sc1ccnc2cc(Cl)ccc12
System Under Test: Jurkat E6.1
Class Assignment: n

Query: Identify whether the molecule COC(=O)/C(=C\c1ccc(OC(=O)c2ccc(OC)c(OC)c2OC)cc1)Sc1ccnc2cc(Cl)ccc12 records Activity below 3%.
Result: n

---

# Procedure Summary: Selectivity index, ratio of IC50 for human lymphocytes to IC50 for human Jurkat E6-1 cells
# Format: toxicity
# Condition Parameters: human lymphocytes versus Jurkat E6-1 cells, read-out: Ratio IC50
Reported Property: selectivity ratio
Lab note: record just the number, no unit beside it.

Consider the reported selectivity ratio for these compounds:
Compound: O=[As][As+](=O)[O-] (stereo not drawn) [ARSENIC TRIOXIDE]
selectivity ratio: 2.09
//
Compound: COC(=O)/C(=C\c1ccc(O)cc1)Sc1ccnc2cc(Cl)ccc12
selectivity ratio: 6.51

// moving on: another record for selectivity ratio
Query: May I ask what selectivity ratio has been recorded for COC(=O)/C(=C\c1ccc(OC(=O)c2ccc(OC)c(OC)c2)cc1)Sc1ccnc2cc(Cl)ccc12 ?
Result: 6.16
